Please respond with reported melting point for every item in the list.

Request: For the compound N#Cc1ccc(C=O)cc1 [4-cyanobenzaldehyde] , what melting point is on record?
Response: 102 °C

Request: One more compound: ClC1C(Cl)C(Cl)C(Cl)C(Cl)C1Cl (stereo not given) [1,2,3,4,5,6-Hexachlorocyclohexane]
Response: 113 °C

Request: Another compound to look at: O=C1C=C(NCNc2ccccn2)C(=O)c2ccccc21 [2-{[(pyridin-2-ylamino)methyl]amino}naphthalene-1,4-dione]
Response: 135 °C

Request: What about OB(O)c1ccnc(F)c1Cl [3-chloro-2-fluoropyridine-4-boronic acid] ?
Response: 128 °C

Request: Same question, OCc1ccc(-c2ccccc2)cc1 [4-biphenylmethanol] this time
Response: 46 °C

FYI, the data here is from the Bradley open melting point set (2014).
